# credit: PubChem BioAssay (NCI)

The reader will find reported TGI values listed item by item below.
# Tested on: ACHN renal
# measurement-notes: NCI tumour cell line growth inhibition, 48 h
parameter: TGI

[[record]]
compound = "Cn1c(/C=C(\\C#N)c2cccc(C(F)(F)F)c2)nc2c(N3CCOCC3)nc(Cl)nc21"
parameter = "TGI"
result = "1.57 µM"

[[record]]
compound = "Cc1cc(C)c2c(=N)c3ccccc3n(CCCCCCn3c4ccccc4c(=N)c4c(C)cc(C)nc43)c2n1"
parameter = "TGI"
result = "2.91 µM"

[[record]]
compound = "COc1ccc(OC)c(NCC#N)c1"
parameter = "TGI"
result = "> 100 µM"

[[record]]
compound = "COc1c2c(c(CC=C(C)C)c3oc(=O)c(-c4ccc(O)cc4)c(O)c13)OC(C)(C)C=C2"
parameter = "TGI"
result = "92.7 µM"

[[record]]
compound = "CCCCCC(O)(CCCCC)CCCCCCCCC1=C(O)c2ccccc2C(=O)C1=O"
parameter = "TGI"
result = "> 100 µM"

[[record]]
compound = "COc1ccc(S(=O)(=O)Nc2ccc(-c3csc(N4C(=O)/C(=C/c5ccccc5)N=C4c4ccccc4)n3)cc2)cc1Cl"
parameter = "TGI"
result = "> 100 µM"

[[record]]
compound = "CN1CCC(C(=O)Nc2n[nH]c3nc(-c4ccc(O)cc4)c(Br)cc23)CC1"
parameter = "TGI"
result = "> 25 µM"

[[record]]
compound = "CCO/C=C1\\N=C(C(Cl)c2ccccc2)OC1=O (stereo not given)"
parameter = "TGI"
result = "> 100 µM"

[[record]]
compound = "Cc1ccc(-c2cc(=O)c3cc(C)c(C)c(C(=O)O)c3o2)cc1"
parameter = "TGI"
result = "> 100 µM"

[[record]]
compound = "COc1ccc(/C=N\\NC(=O)Nc2cccc3ccccc23)cc1"
parameter = "TGI"
result = "66.6 µM"


---

# Test system: SN12K1 renal
# measurement-notes: NCI tumour cell line growth inhibition, 48 h
The reader will find reported TGI values listed item by item below.
parameter: TGI

[[record]]
smiles_str = "C=CC[N+](CCO)(CCO)CCCCCCCCCCCCCCCCCC"
result = "20.5 µM"

[[record]]
smiles_str = "CCOC(=O)NC1=C(N2CC2)C(=O)C(NC(=O)OCC)=C(N2CC2)C1=O"
result = "15.7 µM"

[[record]]
smiles_str = "NC(=S)N/N=C/c1ccc(O)cn1"
result = "> 1500 µM"

[[record]]
smiles_str = "N/C(=N\\N=C\\c1cc2c(cc1Cl)OCO2)NO"
result = "> 100 µM"


---

# System: RPMI-8226 leukemia
# measurement-notes: NCI tumour cell line growth inhibition, 48 h
parameter: log10 of TGI (log10 of the value in µM)

[[record]]
compound = "CC(=O)OC(C)(C)/C=C/C(=O)[C@](C)(O)[C@H]1[C@H](O)C[C@@]2(C)[C@@H]3CC=C4[C@@H](C[C@H](O)C(=O)C4(C)C)[C@]3(CO)C(=O)C[C@]12C"
system = "RPMI-8226 leukemia"
parameter = "log10 of TGI"
quantitative_readout = 0.36

[[record]]
compound = "O=[N+]([O-])c1ccc2nc(/C=C(\\O)c3ccccc3)c(/C=C(\\O)c3ccccc3)nc2c1"
system = "RPMI-8226 leukemia"
parameter = "log10 of TGI"
quantitative_readout = 1.79

[[record]]
compound = "COC12OC3CC4(C)C(=CC3OC(OC(C)C1O)C2O)CCC1C4CCC2(C)C(c3ccc(=O)oc3)CCC12O (stereo not given)"
system = "RPMI-8226 leukemia"
parameter = "log10 of TGI"
quantitative_readout = -2.39

[[record]]
compound = "Cc1c(O)c(=O)ccn1CCc1c[nH]c2ccccc12"
system = "RPMI-8226 leukemia"
parameter = "log10 of TGI"
quantitative_readout = 1.47

[[record]]
compound = "C[C@@H](NC(=O)[C@@H](CC(=O)N1CCC(N2CCCCC2)CC1)N1C(=O)[C@@H](N2C(=O)OC[C@@H]2c2ccccc2)[C@H]1/C=C/c1cccc(Cl)c1)c1ccccc1"
system = "RPMI-8226 leukemia"
parameter = "log10 of TGI"
quantitative_readout = 0.92


---

# Test system: SR leukemia
# measurement-notes: NCI tumour cell line growth inhibition, 48 h
The reader will find reported TGI values listed item by item below.
parameter: TGI

[[record]]
compound = "Cc1ccc(C(=O)N2CCN(C(=O)c3ccc(C)cc3)c3ccccc32)cc1"
parameter = "TGI"
result = "> 100 µM"

[[record]]
compound = "Cc1ccc(S(=O)(=O)C2c3nc4ccccc4cc3-c3nc4ccccc4nc32)cc1 (centres undefined)"
parameter = "TGI"
result = "> 100 µM"

[[record]]
compound = "CC(C)[NH-].CC(C)[NH-].O.O.[Cl][Pt+2][Cl]"
parameter = "TGI"
result = "53.5 µM"

[[record]]
compound = "O=C(Nc1ccc2[nH]c(C(=O)N3CC(CCl)c4c3cc([N+](=O)[O-])c3ccccc43)cc2c1)c1cc2ccccc2o1 (centres undefined)"
parameter = "TGI"
result = "> 1100 µM"

[[record]]
compound = "Cc1cc2c(cc1-c1cc3c(cc1C)C(C(C)C)=C(O)C(=O)/C3=C\\Nc1c(C)n(C)n(-c3ccccc3)c1=O)/C(=C/Nc1c(C)n(C)n(-c3ccccc3)c1=O)C(=O)C(O)=C2C(C)C"
parameter = "TGI"
result = "> 100 µM"

[[record]]
compound = "CSC1(SC)N2Cc3ccccc3N=C2C1(c1ccccc1)c1ccccc1"
parameter = "TGI"
result = "9.36 µM"

[[record]]
compound = "CCOC(=O)C1=NN(c2ccc(Cl)cc2)C2=CC(C)=NN(C)C(=S)N21"
parameter = "TGI"
result = "> 100 µM"

[[record]]
compound = "N#CCOc1cccc(C2(N3CC=CCC3)CCCCC2)c1"
parameter = "TGI"
result = "> 100 µM"

[[record]]
compound = "CCCCNC(=S)c1ccc(OC(=O)Nc2ccc(Cl)cc2)cc1"
parameter = "TGI"
result = "> 100 µM"

[[record]]
compound = "Cc1cc([N+](=O)[O-])ccc1NS(=O)(=O)c1cc(Cl)ccc1Cl"
parameter = "TGI"
result = "27.6 µM"

[[record]]
compound = "C[n+]1c2ccccc2c(Nc2ccc(NS(=O)(=O)CCCCN=C(N)N)cc2)c2ccc(N)cc21"
parameter = "TGI"
result = "> 26.3 µM"

[[record]]
compound = "NC(=S)N/N=C/c1ccc(O)cn1"
parameter = "TGI"
result = "> 323 µM"

[[record]]
compound = "Clc1cccc(N2CCN(CCN3CCc4c([nH]c5ccccc45)C3c3cccnc3)CC2)c1 (centres undefined)"
parameter = "TGI"
result = "> 100 µM"

[[record]]
compound = "CC(=O)OCc1ccc(O)c(C=O)c1"
parameter = "TGI"
result = "> 100 µM"

[[record]]
compound = "CCC(=O)C(C)C(=O)C(=O)C(=O)OC (centres undefined)"
parameter = "TGI"
result = "> 100 µM"

[[record]]
compound = "CN1CCN(C(=O)c2c(NC(=O)NS(=O)(=O)c3ccccc3)sc3c2CCCCC3)CC1"
parameter = "TGI"
result = "> 100 µM"

[[record]]
compound = "Cc1c(O)c(=O)ccn1CCc1c[nH]c2ccccc12"
parameter = "TGI"
result = "49.2 µM"

[[record]]
compound = "COc1ccc(-c2nnc(CCCCCCCCc3nnc(-c4ccc(OC)cc4)n3N)n2N)cc1"
parameter = "TGI"
result = "> 100 µM"

[[record]]
compound = "CCCCOC(=O)c1ccc(NC(=O)CCl)cc1"
parameter = "TGI"
result = "3.85 µM"

[[record]]
compound = "CCOC(=O)C1C[C@H]2CO[C@H](c3ccccc3)N2C1=O (some centres undefined)"
parameter = "TGI"
result = "> 100 µM"

[[record]]
compound = "Cc1cccc(Cl)c1NC(=O)c1cnc(Nc2cc(N3CCOCC3)cc(N3CCOCC3)c2)s1"
parameter = "TGI"
result = "> 10 µM"

[[record]]
compound = "CN(C)C(=S)/N=c1\\ss/c(=N\\C(=S)N(C)C)n1-c1ccc(Cl)cc1"
parameter = "TGI"
result = "> 100 µM"

[[record]]
compound = "Cc1[nH]c(=O)nc2nc3ccc(Cl)cc3c(NC(C)(CO)CO)c12"
parameter = "TGI"
result = "> 100 µM"

[[record]]
compound = "CC1(C)N=C(N)N=C(N)N1c1ccc(CCc2ccc(Cl)cc2S(=O)(=O)F)c(Cl)c1"
parameter = "TGI"
result = "76.5 µM"

[[record]]
compound = "NC(CC(=O)Nc1ccc(Cl)cc1)=Nc1ccccc1"
parameter = "TGI"
result = "> 100 µM"

[[record]]
compound = "O=c1nc(NC(c2ccccc2)(c2ccccc2)c2ccccc2)ccn1CCO"
parameter = "TGI"
result = "> 100 µM"

[[record]]
compound = "O=C(O)C(C(=O)C(=O)C(C(=O)O)c1ccc(Cl)cc1)c1ccc(Cl)cc1 (centres undefined)"
parameter = "TGI"
result = "6 µM"

[[record]]
compound = "O=C(NC12CC3CC(CC(C3)C1)C2)C(=O)c1c[nH]c2ccc([N+](=O)[O-])cc12"
parameter = "TGI"
result = "> 100 µM"

[[record]]
compound = "Cc1ccc(C(=O)C2=CN=C3C(=O)N(c4ccccc4)N(C)C3(C)C2=N)cc1 (centres undefined)"
parameter = "TGI"
result = "> 100 µM"

[[record]]
compound = "Clc1cc(OCC23CC4CC(CC(C4)C2)C3)nc(OCC23CC4CC(CC(C4)C2)C3)n1"
parameter = "TGI"
result = "> 100 µM"

[[record]]
compound = "COC(=O)[C@@]12OC[C@]34C([C@@H](O)C1O)[C@@]1(C)CC(=O)C(O)=C(C)C1C[C@H]3OC(=O)[C@H](OC(=O)/C=C(/c1ccccc1)C(F)(F)F)[C@H]42 (some centres undefined)"
parameter = "TGI"
result = "2.28 µM"

[[record]]
compound = "Cc1ccc(C(=O)/C(=C\\c2ccc([N+](=O)[O-])cc2)S(=O)Cc2ccc(F)cc2)cc1 (centres undefined)"
parameter = "TGI"
result = "12.6 µM"

[[record]]
compound = "CCCCCCCC(=O)OCC1OC(n2cc(F)c(=O)[nH]c2=O)C(NC(=O)OCc2ccccc2)C(O)C1O (centres undefined)"
parameter = "TGI"
result = "> 100 µM"

[[record]]
compound = "COC(=O)C(Cc1ccccc1)NC(=O)c1ccc(CNC(=S)NCc2cccc(CNC(=S)NCc3ccccc3)c2)cc1 (centres undefined)"
parameter = "TGI"
result = "> 62.5 µM"

[[record]]
compound = "c1cncc(-c2nc3ccccc3s2)c1"
parameter = "TGI"
result = "> 100 µM"

[[record]]
compound = "Cn1c(/C=C(\\C#N)c2cccc(C(F)(F)F)c2)nc2c(N3CCOCC3)nc(Cl)nc21"
parameter = "TGI"
result = "1.86 µM"

[[record]]
compound = "N#Cc1ccc(C2C3=C(CCCC3=O)OC3=C2C(=O)c2ccccc2C3=O)cc1 (centres undefined)"
parameter = "TGI"
result = "> 100 µM"

[[record]]
compound = "C/C(=N\\NC(=O)c1cccnc1)c1cccc(/C(C)=N/NC(=O)c2cccnc2)n1.CC(=O)[O-].CC(=O)[O-].[Zn+2]"
parameter = "TGI"
result = "10.8 µM"

[[record]]
compound = "COc1ccc([I+]c2ccccc2)cc1"
parameter = "TGI"
result = "> 100 µM"

